Tested on: MV-4-11 cells
EXPERIMENT NOTES: Inhibition of MV-4-11 cell proliferation (MTS, 7 days)
Type: cell-based
ASSAY SETUP: Homo sapiens, MV4-11, Table 4, values in nM, read-out: Inhibitory Activity of Compounds on Cell Proliferation MV-4-11 IC50
PARAMETER MEASURED: IC50

Would you please look over these solved cases?
O=C1CCC(N2Cc3c(NCc4cnc(-c5ccc(OC(F)(F)F)cc5)o4)cccc3C2=O)C(=O)N1 (centres unmarked) [Prior Art Disclosed Compound-1, reference compound] = > 20000 nM
O=C1CCC(N2Cc3c(CCc4cnc(-c5ccc(OC(F)(F)F)cc5)o4)cccc3C2=O)C(=O)N1 (centres unmarked) [Prior Art Disclosed Compound-2, reference compound] = > 20000 nM

Would you mind giving IC50 for every compound in the list below?
1. O=C1CCC(N2Cc3c(NCc4cn(-c5ccc(Cl)cc5)nn4)cccc3C2=O)C(=O)N1 (centres unmarked) [Example Ctrl-4, reference compound]
2. O=C1CCC(N2C(=O)c3cccc(OCc4cn(-c5ccc(OC(F)(F)F)cc5)nn4)c3C2=O)C(=O)N1 (centres unmarked) [Prior Art Disclosed Compound-3, reference compound]
3. CC(C)(C)C(=O)N1CCC(c2ncc(CNc3cccc4c3C(=O)N(C3CCC(=O)NC3=O)C4=O)o2)CC1 (centres unmarked)
4. CC(C)(C)C(=O)N1CCC(c2ncc(CNc3cccc4c3CN(C3CCC(=O)NC3=O)C4=O)o2)CC1 (centres unmarked) [Example Ctrl-1, reference compound]
5. O=C1CCC(N2Cc3c(OCC4CCN(c5ccc(OC(F)(F)F)cc5)CC4)cccc3C2=O)C(=O)N1 (centres unmarked) [Prior Art Disclosed Compound-4, reference compound]
6. O=C1CCC(N2C(=O)c3cccc(NCc4cnc(-c5ccc(OC(F)(F)F)cc5)o4)c3C2=O)C(=O)N1 (centres unmarked)

Result:
1. > 20000 nM
2. > 20000 nM
3. 782 nM
4. 14400 nM
5. > 10000 nM
6. 750 nM
